# measured_target: P2Y2 (Homo sapiens, UniProt P41231)
# Sequence (P41231 whole entry): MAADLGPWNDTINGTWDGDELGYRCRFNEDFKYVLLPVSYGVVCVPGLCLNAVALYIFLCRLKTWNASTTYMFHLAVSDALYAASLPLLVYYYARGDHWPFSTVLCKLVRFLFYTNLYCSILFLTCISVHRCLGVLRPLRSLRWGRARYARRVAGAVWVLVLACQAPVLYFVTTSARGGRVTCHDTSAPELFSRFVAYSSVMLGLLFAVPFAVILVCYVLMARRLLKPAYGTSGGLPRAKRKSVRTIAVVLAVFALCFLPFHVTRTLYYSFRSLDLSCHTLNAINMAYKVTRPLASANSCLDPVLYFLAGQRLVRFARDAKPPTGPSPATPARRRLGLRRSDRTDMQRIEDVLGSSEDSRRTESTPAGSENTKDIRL
# experimental_protocol: Inositol phosphate assay, P2Y2 receptor
# setup_conditions: IA = no agonist activity at 30 μM
Measured EC50 values are reported for all entries that follow.
readout_name: EC50 (nM)

{"compound": "Nc1ccn([C@@H]2O[C@H](COP(=O)(O)OP(=O)(O)OP(=O)(O)OP(=O)(O)OC[C@H]3O[C@@H](n4ccc(=O)[nH]c4=O)[C@H](O)[C@@H]3O)[C@@H](O)[C@H]2O)c(=O)n1 [CP4 U]", "readout_name": "EC50", "qualifier": "=", "quantitative_readout": 450}
{"compound": "Nc1ccn([C@@H]2O[C@H](COP(=O)(O)OP(=O)(O)OP(=O)(O)OP(=O)(O)OC[C@H]3O[C@@H](n4ccc(N)nc4=O)[C@H](O)[C@@H]3O)[C@@H](O)[C@H]2O)c(=O)n1 [C2 P4]", "readout_name": "EC50", "qualifier": ">", "quantitative_readout": 30000}

###

# Tested on: P2Y6
# experimental_protocol: Inositol phosphate assay, P2Y6 receptor
# Assay type: cell-based
# setup_conditions: IA = no agonist activity at 30 μM
pEC50: −log10 of the molar value.
Measured pEC50 values are reported for all entries that follow.

{"compound": "Nc1ccn([C@@H]2O[C@H](COP(=O)(O)OP(=O)(O)OP(=O)(O)OP(=O)(O)OC[C@H]3O[C@@H](n4ccc(=O)[nH]c4=O)[C@H](O)[C@@H]3O)[C@@H](O)[C@H]2O)c(=O)n1 [CP4 U]", "measured_target": "P2Y6", "qualifier": "=", "pEC50": 5.46}
{"compound": "Nc1ccn([C@@H]2O[C@H](COP(=O)(O)OP(=O)(O)OP(=O)(O)OP(=O)(O)OC[C@H]3O[C@@H](n4ccc(N)nc4=O)[C@H](O)[C@@H]3O)[C@@H](O)[C@H]2O)c(=O)n1 [C2 P4]", "measured_target": "P2Y6", "qualifier": "<", "pEC50": 4.52}

###

Measured metabolised at 1 h, 100 µM values are reported for all entries that follow.
# experimental_protocol: in vitro
# setup_conditions: human, bronchial epithelial cells, pH 7.2

{"molecule": "O=c1ccn([C@@H]2O[C@H](COP(=O)(O)OP(=O)(O)OP(=O)(O)O)[C@@H](O)[C@H]2O)c(=O)[nH]1 [UTP, uridine 5'-triphosphate]", "metabolised at 1 h, 100 µM (%)": 100}
{"molecule": "O=c1ccn([C@@H]2O[C@H](COP(=O)(O)OP(=O)(O)OP(=O)(O)OP(=O)(O)OC[C@H]3O[C@@H](n4ccc(=O)[nH]c4=O)[C@H](O)[C@@H]3O)[C@@H](O)[C@H]2O)c(=O)[nH]1 [U2 P4, P^1,P^4 -Di(uridine 5'-)tetraphosphate]", "metabolised at 1 h, 100 µM (%)": 40}

###

# measured_target: P2Y4 (Homo sapiens, UniProt P51582)
# Sequence (P51582 whole entry, species assumed): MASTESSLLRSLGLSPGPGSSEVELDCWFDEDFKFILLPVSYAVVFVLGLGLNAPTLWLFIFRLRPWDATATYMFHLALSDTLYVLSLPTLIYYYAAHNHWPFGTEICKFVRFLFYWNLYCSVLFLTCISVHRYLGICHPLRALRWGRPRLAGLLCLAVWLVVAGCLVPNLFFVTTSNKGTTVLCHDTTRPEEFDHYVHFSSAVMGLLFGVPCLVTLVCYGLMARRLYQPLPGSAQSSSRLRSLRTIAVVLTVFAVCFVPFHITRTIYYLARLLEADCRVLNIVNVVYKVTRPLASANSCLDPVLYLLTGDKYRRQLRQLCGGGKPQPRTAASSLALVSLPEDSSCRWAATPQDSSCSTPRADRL
# experimental_protocol: Inositol phosphate assay, P2Y4 receptor
# setup_conditions: IA = no agonist activity at 30 μM
# Excerpt: The pharmaceutical utility of the compounds of this invention is indicated by the inositol phosphate assay for P2Y2 and other P2Y receptor activity. This widely used assay, as described in E. Lazarowski, et al., Brit. J. Pharm. 116, 1619-27 (1995), relies on the measurement of inositol phosphate formation as a measurement of activity of compounds activating receptors linked via G-proteins to phospholipase C. […]
readout_name: EC50 (nM)

{"item_smiles": "Nc1ccn([C@@H]2O[C@H](COP(=O)(O)OP(=O)(O)OP(=O)(O)OP(=O)(O)OC[C@H]3O[C@@H](n4ccc(N)nc4=O)[C@H](O)[C@@H]3O)[C@@H](O)[C@H]2O)c(=O)n1", "readout_name": "EC50", "qualifier": ">", "quantitative_readout": 30000}
{"item_smiles": "Nc1ccn([C@@H]2O[C@H](COP(=O)(O)OP(=O)(O)OP(=O)(O)OP(=O)(O)OC[C@H]3O[C@@H](n4ccc(=O)[nH]c4=O)[C@H](O)[C@@H]3O)[C@@H](O)[C@H]2O)c(=O)n1", "readout_name": "EC50", "qualifier": "=", "quantitative_readout": 650}
